System: A549
Experiment: NCI tumour cell line growth inhibition, 48 h
The source made the active and inactive calls. Cut-off read from the data, not from the text of the source: active = GI50 up to about 1.1 µM and inactive = higher.
observedProperty: GI50

Report GI50, nothing else, for this compound: Cc1cc(C)nc(NC(=S)Nc2cccc(Cl)c2)c1
20.8 µM (inactive)

State, in one line, measured GI50 of CC(C)C1C(=O)NC(CO)Cc2c[nH]c3c(C(c4c[nH]c5ccccc45)C(O)CO)ccc(c23)N1C (stereo not given)
23.5 µM (inactive)

Give reported GI50 value for COc1ccc(/C=C2/CSC/C(=C/c3ccc(OC)c(OC)c3)C2=O)cc1OC
2.27 µM (inactive)

Read off the recorded GI50 for C=C1C(=O)OC2CC1C(OC(=O)/C=C/c1ccccc1)C/C(C)=C/CC/C(C)=C/CCC2(C)O (stereo not given)
1.71 µM (inactive)

// fetch GI50 given entry COc1ccc(/N=N/c2c(N)nn(C)c2N)cc1
> 100 µM (inactive)

For the compound Cc1nn(C(=O)Cc2ccccc2)c2c1C(c1ccc(O)cc1)SC(=N)N2 (stereo not given) , give its reported GI50.
> 100 µM (inactive)

Consider the compound CCOC(=O)c1c(SCCO)n(-c2ccccc2)c(=S)n(-c2ccccc2)c1=O and give its recorded GI50.
> 100 µM (inactive)

Supply recorded GI50 for CN(C)c1ccc(/C=C2\N=C(NN)NC2=O)cc1 here.
61.8 µM (inactive)

Indicate the recorded GI50 value for this compound: O=C1CC2(CCN(Cc3ccccc3)CC2)C(=O)N1N1CCCCC1
> 100 µM (inactive)

Indicate the recorded GI50 value for this compound: COc1ccc(CC#C/C=C/C(=O)NCC(C)C)cc1
> 100 µM (inactive)

// Input: O=C(O)c1ccc(CNCc2ccccc2)cc1 . Output its GI50 only.
> 100 µM (inactive)

Name the recorded GI50 of the item C1COCCOP2(N3CC3)=NP(N3CC3)(=NP(N3CC3)(N3CC3)=N2)OCCOCCO1 (stereo not given) in your answer.
> 100 µM (inactive)

Give reported GI50 value for CC1CC[C@@]2(OC1)OC1C[C@H]3[C@@H]4C/C(=N\N(C)C)[C@@]5(O)CC(O)CC[C@]5(C)[C@H]4CC[C@]3(C)C1[C@@H]2C (stereo not given in full)
48.6 µM (inactive)

# return recorded GI50 for input COC(=O)c1nc(C(=O)OC)c2c([nH]c3ccccc32)c1C(=O)OC
> 100 µM (inactive)

For the compound Cc1cc(O)c2c(c1)CC(O)C1=C2C(=O)c2c(O)ccc(OC3CC(O)C(OC4CC(OC5CCC(O)C(C)O5)C(O)C(C)O4)C(C)O3)c2C1=O (stereo not given) , give its measured GI50 value.
2.33 µM (inactive)

====

System: SF-268
Assay: NCI tumour cell line growth inhibition, 48 h
Calls of active or inactive are those of the source. Cut-off read from the data, not from the text of the source: active = GI50 up to about 1.1 µM and inactive = higher.
Entry note: the call must match one of 1.0 (active), 0.0 (inactive)

Field: outcome | Entry: CCCC(Sc1ccccc1)P(=O)(c1ccccc1)c1ccccc1 (centres undefined)
0.0

What did the test return for O/N=C1/C(=C/c2ccc(Oc3ccccc3)cc2)CCCC1C(NO)c1ccc(Oc2ccccc2)cc1 (centres undefined) ?
0.0

What call does the record list for N#CC(/C(=N/NC(N)=S)C(=O)Nc1cccc(Cl)c1)c1ccccc1 (centres undefined) ?
0.0

Recorded call for O=C1CC[C@@H](NC(=O)Cc2ccccc2)C(=O)N1 ?
0.0

# lookup: test call for O=C(NN=C1NCCCN1)c1ccco1
0.0

What did the test return for CCOC(=O)c1c(SCCO)n(-c2ccccc2)c(=S)n(-c2ccccc2)c1=O ?
0.0

Give the logged outcome of this assay for the following compound: CC(=O)O[C@H]1CC[C@@H](OC(C)=O)[C@H]2[C@H](O)[C@H](O)[C@@H]1n1c(=O)n(-c3ccccc3)c(=O)n12
0.0

Fill in: this test's call for CCc1cccc(C(C)C)c1C1C(=O)C(=O)N(c2nc3ccccc3s2)C(=O)C1=O is ___
0.0

Each compound tested received a call. Report the one for Cn1nc(C(=O)N2CC(CCl)c3c2cc([N+](=O)[O-])c2ccccc32)cc1NC(=O)Nc1cc(C(=O)N2CC(CCl)c3c2cc([N+](=O)[O-])c2ccccc32)nn1C (centres undefined) .
0.0

Dear colleague, could you share the recorded outcome for O=C(Nn1c(-c2ccccc2)nc2ccccc2c1=O)c1ccc([N+](=O)[O-])cc1 when you have a moment?
0.0

# lookup: test call for CC1=NC(=Cc2ccc(O)cc2)C(=O)N1n1c(-c2ccccc2)nc2ccccc2c1=O
0.0

Answer briefly: the call reported for Cc1c(/C=N/NC(=S)Nc2cccc(Cl)c2)c(=O)n(-c2ccccc2)n1C in this assay.
0.0

Please let me know the test result on file for CCCNC(=O)CCC(C)[C@H]1CCC2C3C(C[C@H](OC(C)=O)[C@@]21C)[C@@]1(C)CCC2(C[C@H]1C[C@H]3OC(C)=O)OOC1(CCCCC1)OO2 (some centres undefined) .
0.0

Record request — test call for CCN(CC)CCNC(=O)c1cn2c(ccc3sc4ccccc4c(=O)c32)n1
0.0

Outcome? O=S(=O)(O)c1ccc2c(/N=N\c3ccc(F)cc3)c(O)c(S(=O)(=O)O)cc2c1
0.0

What did this assay record as the result for COc1cc(NCCC2CCCCN2)c2ncccc2c1 (centres undefined) ?
0.0

Hi, do you know how Cc1cc2c(cc1-c1cc3c(cc1C)C(C(C)C)=C(O)C(=O)/C3=C\NCC1CCCN3CCCCC13)/C(=C/NCC1CCCN3CCCCC13)C(=O)C(O)=C2C(C)C (centres undefined) came out in this test?
0.0

// param item: CCOC(=O)C1=C(C)N(c2ccc(Cl)cc2)C2(O)C=CC(Nc3ccc(Cl)cc3)=C3C(=O)N(c4ccccc4)C(=O)C312 (centres undefined) ; yields the recorded call
0.0

Name the outcome recorded for c1ccc(P2c3ccccc3Nc3ccccc32)cc1 in the assay.
0.0

Which outcome was assigned to CC(=O)NC(CCC(=O)C=[N+]=[N-])C(=O)O (centres undefined) in this test?
0.0

Tell me the recorded outcome of this test for CCN(CC)C(=O)Cn1c2c(c3ccccc31)CCCC2 .
0.0

Test call for this compound, please: Cc1cc(C)c(-n2c(-c3ccc(Br)cc3)cs/c2=N\N=C2C=C(C(C)(C)C)C(=O)C(C(C)(C)C)=C2)c(C)c1
0.0

Please let me know the test result on file for CC(=S)NC=C(C(N)=O)C(N)=O .
0.0

Check the results log: what was the call for C1=N\CCNCC/N=C/c2ccccc2OCc2cccc(n2)COc2ccccc2/1 ?
0.0

Entry COc1ccc(C(=O)c2sc(Nc3ccc(Cl)cc3)nc2N)cc1 : call = ?
0.0

Hi, do you know how COc1ccc(C(OCC2OC(n3cnc4c(=O)n(Cc5ccccc5[N+](=O)[O-])nnc43)C(O)C2O)(c2ccccc2)c2ccc(OC)cc2)cc1 (centres undefined) came out in this test?
0.0

Any idea what this test logged for CC(=O)OC1COC(N2C(=O)C(=O)c3ccccc32)C(OC(C)=O)C1OC(C)=O (centres undefined) ?
0.0

What was the test verdict on C/C(=N\Nc1nc2ccccc2o1)c1ccncn1 ?
1.0

Field: outcome | Entry: O=C1C2=C(c3ccccc31)C(c1ccc(Cl)cc1)N1C(=O)CCSC1=N2 (centres undefined)
0.0

What did this assay record as the result for O=C1C=CC2(C=C1)C[C@H](NC(=O)OCc1ccccc1)C(=O)O2 ?
0.0

# fetch the recorded call for CCOC(=O)/C(I)=C/c1cc(OC)c(OC)c(OC)c1 here
0.0

What classification did NC(Cc1ccc(S(=O)(=O)O)cc1)C(=O)NC(Cc1ccc(S(=O)(=O)O)cc1)C(=O)O (centres undefined) end up with in this test?
0.0

Assay outcome for CCOC(=O)C1CCCCN1C(=O)Cc1c[nH]c2ccccc12 (centres undefined) : what was it?
0.0

What did the test return for C=C1C(=O)OC2CC1C(OC(=O)/C=C/c1ccccc1)C/C(C)=C/CC/C(C)=C/CCC2(C)O (centres undefined) ?
0.0
